system: Plasmodium falciparum; test: GSK_TCMDC: Inhibition of Plasmodium falciparum 3D7 in whole erythrocytes, using parasite LDH activity as an index of growth.; type: functional, organism-based; details: Plasmodium falciparum, 3D7
measurement_label: XC50 (nM)
Field format: number, assumed nM, no unit text.

molecule | XC50 / nM
COc1ccc(S(=O)(=O)Nc2ccc(C(=O)NCc3ccc(C(F)(F)F)cc3)cc2)cc1N1CCN(CC2CC2)CC1 | 1120
O=C(NCCCCCN1CCC(c2c[nH]c3ccccc23)CC1)Nc1cccc(Br)c1 | 1110
O=C(/C=C/c1ccc(Cl)c(Cl)c1)NCCCCCN1CCC(C(=O)Nc2cccc(Cl)c2)CC1 | 681
CCCN(C(=O)c1ccccc1C)c1nnc(-c2ccccc2C)s1 | 1110
CCCc1c(C(=O)NC2CCC(CN3CCC(c4c[nH]c5ccccc45)CC3)CC2)cnn1-c1ccccc1 (centres undefined) | 1790

Exercise: Consider the molecule shown here: "Cc1cc(N)c2cc(NC(=O)/C=C/c3ccccc3Cl)ccc2n1" What is its recorded XC50?
Solution: 405

Exercise: What XC50 value was documented for this molecule, "O=C(Nc1ccc(-c2cccc(-c3nc4cc(C(F)(F)F)ccc4[nH]3)c2)cc1)c1ccoc1" ?
Solution: 829

Exercise: Name the reported XC50 value associated with the molecule [O-][s+]1nc(NCCCN(Cc2cccs2)c2ccccn2)c(NCc2ccccc2)n1 (centres undefined)
Solution: 305

Exercise: So what does the record say about XC50 for Cc1ccc(S(=O)(=O)c2nc(S(=O)(=O)c3ccccc3)sc2NCC2CCCO2)cc1 (centres undefined) ?
Solution: 1020
